SYSTEM UNDER TEST: full length human TPH1 (Homo sapiens, UniProt P17752)
Construct: To generate the enzyme, full length human TPH1 is cloned into the plasmid pET20b(+); made in house; host or cells: E. coli
ASSAY METHOD TEXT: Biochemical in vitro assay using fluorescence readout (TPH1 enzyme activity)
SETUP CONDITIONS: Table 1, mean where determined several times
pIC50: −log10 of the molar value.
RECORDED ENDPOINT: pIC50

Field: example entries. Status: answers known.
Query: Which measured pIC50 belongs to CNC(=O)c1ccc(OCC(=O)N2CCc3nc4n(c3C2c2sc(C)nc2C)CCCC4)c(Cl)n1 (stereo not shown) , tested on full length human TPH1 (Homo sapiens, UniProt P17752)?
Response: 7.44

Query: Again, but for O=C(COc1ccc(-c2ncco2)nc1Cl)N1CCc2nc3n(c2C1c1ccc(C2CC2)cc1F)CCCC3 (stereo not shown)
Response: 7.77

[1] CCc1nc(NS(C)(=O)=O)ncc1OCC(=O)N1CCc2nc3n(c2C1c1ccc(Cl)cc1F)CCS3 (stereo not shown)
[2] Cc1ccc(C2c3c(nc4n3CCCC4)CCN2C(=O)COc2ccc(NS(C)(=O)=O)nc2Cl)c(F)c1F (stereo not shown)
Query: Name the one with the greater pIC50 value, either 1 or 2 as given. # respond with the chosen item's label
Response: 2
(2: 7.59, 1: 7.17)

###

SYSTEM UNDER TEST: full length human TPH1 (Homo sapiens)
Construct: To generate the enzyme, full length human TPH1 is cloned into the plasmid pET20b(+); made in house; host or cells: E. coli
ASSAY METHOD TEXT: Biochemical in vitro assay using fluorescence readout (TPH1 enzyme activity)
SETUP CONDITIONS: Table 1, mean where determined several times
RECORDED ENDPOINT: IC50 (nM)

Here are 3 molecules together with their reported answers.
Query: Please state recorded IC50 (tested on full length human TPH1 (Homo sapiens)) of CCc1nc(NS(C)(=O)=O)ccc1OCC(=O)N1CCc2nc3n(c2C1c1sc(C)nc1C)CCS3 (stereo not drawn)
Response: 16

Query: Another: O=C(COc1ccc(C2CC2)nc1Cl)N1CCc2nc3n(c2C1c1ccc(Cl)cc1F)CCS3 (stereo not drawn)
Response: 11

Query: Now the molecule CS(=O)(=O)Nc1ccc(OCC(=O)N2CCc3nc4n(c3[C@@H]2c2ccc(Cl)cc2F)CCCC4)c(Cl)n1
Response: 23

[a] COC(=O)c1ccc(C2c3c(nc4n3CCCC4)CCN2C(=O)COc2ccc(NS(C)(=O)=O)nc2Cl)c(F)c1 (stereo not drawn)
[b] CCc1nc(C(=O)NC2CC2)ccc1OCC(=O)N1CCc2nc3n(c2C1c1ncc(C)cc1F)CCCC3 (stereo not drawn)
[c] CCc1nc(NS(C)(=O)=O)ccc1OCC(=O)N1CCc2nc3n(c2C1c1ccc(Cl)cc1F)CCC3 (stereo not drawn)
[d] CCc1cc(Cl)ccc1OCC(=O)N1CCc2nc3n(c2C1c1ncc(C2CC2)cc1F)CCNC3 (stereo not drawn)
Query: Hey, quick one: sort these by IC50, low to high? // format: requested-order list of labels
Response: b, c, a, d

###

SYSTEM UNDER TEST: full length human TPH1 (Homo sapiens, UniProt P17752)
Construct: To generate the enzyme, full length human TPH1 is cloned into the plasmid pET20b(+); made in house; host or cells: E. coli
ASSAY METHOD TEXT: Biochemical in vitro assay using fluorescence readout (TPH1 enzyme activity)
SETUP CONDITIONS: Table 1, mean where determined several times
RECORDED ENDPOINT: IC50 (nM)

Known IC50 results, listed for orientation:
Query: Fill in the blank: the reported IC50 of Cc1nc(C)c(C2c3c(nc4n3CCCC4)CCN2C(=O)COc2ccc(C#N)nc2Cl)s1 (centres unmarked) is ____.
Response: 77

Query: Param item: CN(c1ccc(OCC(=O)N2CCc3nc4n(c3C2c2ccc(Cl)cc2F)CCS4)c(Cl)n1)S(C)(=O)=O (centres unmarked)
Response: 16

[1] CC(=O)N1CCn2c(nc3c2C(c2ccc(C4CC4)cc2F)N(C(=O)COc2ccc(N4CCOCC4)nc2Cl)CC3)C1 (centres unmarked)
[2] CCc1nc(NS(C)(=O)=O)ncc1OCC(=O)N1CCc2nc3n(c2C1c1sc(C)nc1C)CCCC3 (centres unmarked)
[3] CN(c1ccc(OCC(=O)N2CCc3nc4n(c3C2c2ccc(Cl)cc2F)CCCC4)c(Cl)n1)S(C)(=O)=O (centres unmarked)
[4] CCc1nc(NS(C)(=O)=O)ccc1OCC(=O)N1CCc2nc3n(c2[C@@H]1c1ccc(Cl)cc1F)CCCC3
[5] Cc1ccc(C2c3c(nc4n3CCNC4)CCN2C(=O)COc2ccc(CN3CCOCC3)cc2Cl)c(F)c1 (centres unmarked)
Query: Sort entries by IC50 from minimum to maximum value. Answer by writing out the labels in the requested order.
Response: 1, 4, 3, 5, 2
(1: 5 nM, 4: 8 nM, 3: 25 nM, 5: 52 nM, 2: 121 nM)

###

SYSTEM UNDER TEST: full length human TPH1 (Homo sapiens)
Construct: To generate the enzyme, full length human TPH1 is cloned into the plasmid pET20b(+); made in house; host or cells: E. coli
ASSAY METHOD TEXT: Biochemical in vitro assay using fluorescence readout (TPH1 enzyme activity)
SETUP CONDITIONS: Table 1, mean where determined several times
RECORDED ENDPOINT: IC50 (nM)

// known answers, use as guide
Query: Record request: IC50 value, item CCc1nc(C(=O)NC2CC2)ccc1OCC(=O)N1CCc2nc3n(c2C1c1ccc(Cl)cc1F)CCCC3 (centres unmarked)
Response: 9

Query: Input CCc1nc(C(=O)NC2CC2)ccc1OCC(=O)N1CCc2nc3n(c2[C@@H]1c1sc(C)nc1C)CCCC3
Response: 5

Query: Note, next up: CS(=O)(=O)Nc1ccc(OCC(=O)N2CCc3nc4n(c3C2c2ccc(OC(F)(F)F)cc2F)CCCC4)c(Cl)n1 (centres unmarked)
Response: 37

Query: Same thing, different compound: CN(C)C(=O)c1ccc(OCC(=O)N2CCc3nc4n(c3C2c2sc(C(=O)N(C)C)cc2F)CCCC4)c(Cl)n1 (centres unmarked)
Response: 55

Query: Now the same for Cc1ccc(C2c3c(nc4n3CCC4)CCN2C(=O)COc2ccc(NS(C)(=O)=O)nc2Cl)c(F)c1 (centres unmarked)
Response: 15

[1] Cc1ccc(C2c3c(nc4n3CCCC4)CCN2C(=O)COc2ccc(C(=O)NC3CC3)nc2Cl)c(F)c1F (centres unmarked)
[2] CCc1nc(N2CCCS2(=O)=O)ccc1OCC(=O)N1CCc2nc3n(c2[C@@H]1c1sc(C)nc1C)CCC3
[3] Cc1cnc(C2c3c(nc4n3CCCC4)CCN2C(=O)COc2ccc(C(=O)N(C)C)nc2Cl)c(F)c1 (centres unmarked)
Query: Hi! Can you put these in order of IC50, lowest number first? Put the labels in the requested order and list them out.
Response: 2, 1, 3
(2: 7 nM, 1: 16 nM, 3: 33 nM)

[1] Cc1nc(C)c(C2c3c(nc4n3CCCC4)CCN2C(=O)COc2ccc(C(=O)N(C)C)nc2Cl)s1 (centres unmarked)
[2] Cc1nc(C)c(C2c3c(nc4n3CCCC4)CCN2C(=O)COc2ccc(-c3ncco3)nc2Cl)s1 (centres unmarked)
[3] CC(=O)N1CCn2c(nc3c2C(c2sccc2F)N(C(=O)COc2ccc(C(=O)N(C)C)nc2Cl)CC3)C1 (centres unmarked)
[4] CCc1nc(NS(C)(=O)=O)ccc1OCC(=O)N1CCc2nc3n(c2C1c1sc(C)nc1C)CCCC3 (centres unmarked)
Query: Please list the entries, largest IC50 first. Write out the labels following the order that was asked for.
Response: 1, 3, 2, 4
(1: 85 nM, 3: 24 nM, 2: 16 nM, 4: 8 nM)

[A] CC(=O)N1CCn2c(nc3c2C(c2ccc(C4CC4)cc2F)N(C(=O)COc2cc(F)cnc2Cl)CC3)C1 (centres unmarked)
[B] CCc1nc(N2CCCS2(=O)=O)ccc1OCC(=O)N1CCc2nc3n(c2C1c1ccc(Cl)cc1F)CCS3 (centres unmarked)
Query: Which value of IC50 is smaller, the one for A or the one for B ? Mark your selection by writing its label.
Response: B

###

SYSTEM UNDER TEST: full length human TPH1 (Homo sapiens, UniProt P17752)
Construct: To generate the enzyme, full length human TPH1 is cloned into the plasmid pET20b(+); made in house; host or cells: E. coli
Sequence (P17752 1-444): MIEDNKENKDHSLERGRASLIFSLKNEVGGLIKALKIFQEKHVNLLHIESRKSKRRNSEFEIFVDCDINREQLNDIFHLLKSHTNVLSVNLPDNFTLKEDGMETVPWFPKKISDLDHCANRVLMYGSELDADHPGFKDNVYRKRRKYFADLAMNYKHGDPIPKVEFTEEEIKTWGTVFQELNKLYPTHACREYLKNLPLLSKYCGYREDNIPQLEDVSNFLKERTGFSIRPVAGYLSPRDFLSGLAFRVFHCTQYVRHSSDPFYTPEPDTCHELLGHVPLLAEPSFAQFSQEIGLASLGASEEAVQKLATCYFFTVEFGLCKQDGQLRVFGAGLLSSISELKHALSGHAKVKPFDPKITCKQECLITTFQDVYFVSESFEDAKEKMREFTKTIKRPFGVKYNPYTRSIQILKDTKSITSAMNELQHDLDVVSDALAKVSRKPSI
ASSAY METHOD TEXT: Biochemical in vitro assay using fluorescence readout (TPH1 enzyme activity)
SETUP CONDITIONS: Table 1, mean where determined several times
RECORDED ENDPOINT: IC50 (nM)

The following molecules have reported results that may help.
Query: Can you look up the measured IC50 of CS(=O)(=O)Nc1ccc(OCC(=O)N2CCc3nc4n(c3C2c2ncc(Cl)cc2F)CCOC4)c(Cl)n1 (stereo not drawn) for me?
Response: 143

Query: Record: CCc1nc(NS(C)(=O)=O)ccc1OCC(=O)N1CCc2nc3n(c2C1c1sccc1F)CCS3 (stereo not drawn)
Response: 19

Query: Subsequent entry: CC(=O)N1CCn2c(nc3c2C(c2ccc(C4CC4)cc2F)N(C(=O)COc2cccnc2Cl)CC3)C1 (stereo not drawn)
Response: 28

Query: Param item: CCOC(=O)c1csc(C2c3c(nc4n3CCCC4)CCN2C(=O)COc2ccc(NS(C)(=O)=O)nc2Cl)n1 (stereo not drawn)
Response: 558

[a] CC(=O)N1CCn2c(nc3c2C(c2ncc(C4CC4)cc2F)N(C(=O)COc2cc(F)c(N4CCOCC4)nc2Cl)CC3)C1 (stereo not drawn)
[b] CCc1nc(C(=O)NC2CC2)ccc1OCC(=O)N1CCc2nc3n(c2C1c1sc(C)nc1C)CCCC3 (stereo not drawn)
Query: Which of the two items, a and b , has the greater recorded IC50? Field: selected label. Fill in the label of the entry you choose.
Response: a
